# TESTED_SYSTEM: Nuclear receptor subfamily 1 group I member 2 (Homo sapiens)
# ASSAY_COMMENT: Transactivation of PXR (unknown origin) expressed in human HepG2 cells assessed as maximum receptor activation response relative to control
# Assay type: cell-based
# EXPERIMENTAL_PARAMETERS: hepg2
ENDPOINT_LABEL: %max (%)

CS(=O)(=O)C1CCC(C(=O)N2CC[C@](c3ccc(C(F)(C(F)(F)F)C(F)(F)F)cc3)(S(=O)(=O)c3ccc(F)cc3)C2)CC1 (stereo in doubt; 29)
6

a. O=C1NC(=O)C2(CCC(C(=O)N3CC[C@](c4ccc(C(F)(C(F)(F)F)C(F)(F)F)cc4)(S(=O)(=O)c4ccc(F)cc4)C3)CC2)N1 (stereo in doubt; 24)
b. O=C(O)C1CCC(O)(C(=O)N2CC[C@](c3ccc(C(F)(C(F)(F)F)C(F)(F)F)cc3)(S(=O)(=O)c3ccc(F)cc3)C2)CC1 (stereo in doubt; 13)
IN: Between a and b , whose measured %max reads higher? State the label of the item chosen.
OUT: a
(a: 28%, b: 19%)

====

# ASSAY_COMMENT: Stability in mouse liver microsomes assessed as parent compound remaining after 10 mins
# Format: ADME, Microsome
# EXPERIMENTAL_PARAMETERS: liver microsomes, read-out: Stability
ENDPOINT_LABEL: remaining at 10 min (%)

These solved cases illustrate the format of a correct answer.
O=C(C1CCS(=O)(=O)C1)N1CC[C@](c2ccc(C(F)(C(F)(F)F)C(F)(F)F)cc2)(S(=O)(=O)c2ccc(F)cc2)C1 (stereo in doubt; 32)
78
CO[C@]1(C(=O)N2CC[C@](c3ccc(C(F)(C(F)(F)F)C(F)(F)F)cc3)(S(=O)(=O)c3ccc(F)cc3)C2)CC[C@H](C(=O)O)CC1
95
O=C(N1CC[C@](c2ccc(C(F)(C(F)(F)F)C(F)(F)F)cc2)(S(=O)(=O)c2ccc(F)cc2)C1)C1(F)CCS(=O)(=O)CC1
90
O=C([C@H]1CC[C@H](c2nnn[nH]2)CC1)N1CC[C@](c2ccc(C(F)(C(F)(F)F)C(F)(F)F)cc2)(S(=O)(=O)c2ccc(F)cc2)C1
73

a. O=C([C@H]1CC[C@H](O)CC1)N1CC[C@](c2ccc(C(F)(C(F)(F)F)C(F)(F)F)cc2)(S(=O)(=O)c2ccc(F)cc2)C1
b. C[C@]1(C(=O)N2CC[C@](c3ccc(C(F)(C(F)(F)F)C(F)(F)F)cc3)(S(=O)(=O)c3ccc(F)cc3)C2)CC[C@@H](C(=O)O)CC1
IN: Could you point out whether the larger remaining at 10 min belongs to a or to b ? Your choice should be expressed through its label.
OUT: b

====

# TESTED_SYSTEM: Cytochrome P450 2D6 (Homo sapiens)
# Sequence (P10635 whole entry): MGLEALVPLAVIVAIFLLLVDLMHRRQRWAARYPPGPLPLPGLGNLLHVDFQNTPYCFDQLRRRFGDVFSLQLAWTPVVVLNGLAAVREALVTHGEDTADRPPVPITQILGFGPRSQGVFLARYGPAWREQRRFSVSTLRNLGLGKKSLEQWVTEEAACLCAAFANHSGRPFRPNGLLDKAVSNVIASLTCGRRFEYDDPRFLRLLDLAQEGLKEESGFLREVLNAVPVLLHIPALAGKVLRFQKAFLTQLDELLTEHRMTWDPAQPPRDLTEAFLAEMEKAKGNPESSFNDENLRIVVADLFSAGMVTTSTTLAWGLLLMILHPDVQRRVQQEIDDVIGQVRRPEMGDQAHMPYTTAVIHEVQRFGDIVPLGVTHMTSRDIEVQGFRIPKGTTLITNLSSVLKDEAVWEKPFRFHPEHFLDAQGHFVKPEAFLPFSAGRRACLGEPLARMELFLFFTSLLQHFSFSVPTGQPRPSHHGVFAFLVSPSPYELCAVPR
pIC50: −log10 of the molar value.
ENDPOINT_LABEL: pIC50

IN: // lookup pIC50 | system=Cytochrome P450 2D6 (Homo sapiens) | key= CC[C@]1(C(=O)N2CC[C@](c3ccc(C(F)(C(F)(F)F)C(F)(F)F)cc3)(S(=O)(=O)c3ccc(F)cc3)C2)CC[C@H](C(=O)O)CC1
OUT: < 5.00

====

# TESTED_SYSTEM: Nuclear receptor subfamily 1 group I member 2 (Homo sapiens)
# ASSAY_COMMENT: Transactivation of PXR (unknown origin) expressed in human HepG2 cells
# Type: cell-based
Below, each entry is listed with its recorded EC50.

O=C([C@H]1CC[C@](F)(C(=O)O)CC1)N1CC[C@](c2ccc(C(F)(C(F)(F)F)C(F)(F)F)cc2)(S(=O)(=O)c2ccc(F)cc2)C1
> 17 µM
O=C(C1CCS(=O)(=O)CC1)N1CC[C@](c2ccc(C(F)(C(F)(F)F)C(F)(F)F)cc2)(S(=O)(=O)c2ccc(F)cc2)C1
> 50 µM

Turning now to a further molecule:
IN: Any idea what its EC50 is? The molecule is O=C(N1CC[C@](c2ccc(C(F)(C(F)(F)F)C(F)(F)F)cc2)(S(=O)(=O)c2ccc(F)cc2)C1)C1(F)CCS(=O)(=O)CC1
OUT: > 50 µM

====

# TESTED_SYSTEM: Nuclear receptor ROR-gamma (Homo sapiens)
# Sequence (P51449 whole entry, the tested form may be a part): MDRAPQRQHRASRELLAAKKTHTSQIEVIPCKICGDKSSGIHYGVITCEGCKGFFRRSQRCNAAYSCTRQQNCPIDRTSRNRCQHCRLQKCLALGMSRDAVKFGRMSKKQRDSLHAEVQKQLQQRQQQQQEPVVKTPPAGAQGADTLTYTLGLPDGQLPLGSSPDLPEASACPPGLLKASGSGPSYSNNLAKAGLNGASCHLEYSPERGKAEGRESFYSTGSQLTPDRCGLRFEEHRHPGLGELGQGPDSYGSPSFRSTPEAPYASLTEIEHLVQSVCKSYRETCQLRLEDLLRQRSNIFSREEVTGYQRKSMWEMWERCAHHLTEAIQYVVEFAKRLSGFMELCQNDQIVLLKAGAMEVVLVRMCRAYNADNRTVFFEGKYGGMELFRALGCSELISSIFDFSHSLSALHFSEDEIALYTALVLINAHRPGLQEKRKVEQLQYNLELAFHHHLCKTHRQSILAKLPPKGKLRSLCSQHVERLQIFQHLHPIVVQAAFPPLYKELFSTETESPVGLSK
# ASSAY_COMMENT: Inverse agonist activity at human Gal4-fused RORgammat LBD (267 to 516 residues) expressed in human Jurkat cells measured after 18 hrs by steady-glo luciferase reporter gene assay
pEC50: −log10 of the molar value.
ENDPOINT_LABEL: pEC50

I. C[C@]1(C(=O)N2CC[C@](c3ccc(C(F)(C(F)(F)F)C(F)(F)F)cc3)(S(=O)(=O)c3ccc(F)cc3)C2)CC[C@@H](C(=O)O)CC1
II. C[C@]1(C(=O)N2CC[C@](c3ccc(C(F)(C(F)(F)F)C(F)(F)F)cc3)(S(=O)(=O)c3ccc(F)cc3)C2)CC[C@H](C(=O)O)CC1
IN: Just curious, which one has the larger pEC50 reading, I or II ? Your answer should be the label of the entry you select.
OUT: II
(II: 7.25, I: 6.11)

====

# TESTED_SYSTEM: Nuclear receptor subfamily 1 group I member 2 (Homo sapiens, UniProt O75469)
# Sequence (O75469 whole entry): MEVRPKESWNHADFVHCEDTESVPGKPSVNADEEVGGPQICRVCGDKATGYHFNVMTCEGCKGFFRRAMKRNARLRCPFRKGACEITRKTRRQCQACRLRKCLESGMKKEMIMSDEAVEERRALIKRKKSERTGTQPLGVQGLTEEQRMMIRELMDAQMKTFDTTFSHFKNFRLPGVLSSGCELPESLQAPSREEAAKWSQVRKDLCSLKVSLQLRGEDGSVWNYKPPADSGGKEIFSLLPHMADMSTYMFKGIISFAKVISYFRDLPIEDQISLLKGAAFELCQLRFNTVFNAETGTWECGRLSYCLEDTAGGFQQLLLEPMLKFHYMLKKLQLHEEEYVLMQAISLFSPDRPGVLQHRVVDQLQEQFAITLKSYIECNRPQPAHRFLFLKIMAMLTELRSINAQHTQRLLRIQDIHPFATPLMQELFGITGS
# ASSAY_COMMENT: Transactivation of PXR (unknown origin) expressed in human HepG2 cells assessed as maximum receptor activation response relative to control
# Assay type: cell-based
# EXPERIMENTAL_PARAMETERS: hepg2
ENDPOINT_LABEL: %max (%)

O=C(C1CCS(=O)(=O)C1)N1CC[C@](c2ccc(C(F)(C(F)(F)F)C(F)(F)F)cc2)(S(=O)(=O)c2ccc(F)cc2)C1 (stereo in doubt; 33)
37

1. O=C(O)C1CCC(O)(C(=O)N2CC[C@](c3ccc(C(F)(C(F)(F)F)C(F)(F)F)cc3)(S(=O)(=O)c3ccc(F)cc3)C2)CC1 (stereo in doubt; 12)
2. CS(=O)(=O)C1CCC(C(=O)N2CC[C@](c3ccc(C(F)(C(F)(F)F)C(F)(F)F)cc3)(S(=O)(=O)c3ccc(F)cc3)C2)CC1 (stereo in doubt; 28)
3. O=C1NC(=O)C2(CCC(C(=O)N3CC[C@](c4ccc(C(F)(C(F)(F)F)C(F)(F)F)cc4)(S(=O)(=O)c4ccc(F)cc4)C3)CC2)N1 (stereo in doubt; 25)
IN: Thanks in advance: please rank these 3 entries by %max, highest to lowest. Record the ranking as a list of labels in the requested order.
OUT: 2, 1, 3
(2: 29%, 1: 9%, 3: 3%)

====

# TESTED_SYSTEM: Nuclear receptor subfamily 1 group I member 2 (Homo sapiens)
# ASSAY_COMMENT: Transactivation of PXR (unknown origin) expressed in human HepG2 cells
# Type: cell-based
ENDPOINT_LABEL: EC50

O=C(O)[C@@H]1[C@@H]2C[C@@H](C(=O)N3CC[C@](c4ccc(C(F)(C(F)(F)F)C(F)(F)F)cc4)(S(=O)(=O)c4ccc(F)cc4)C3)C[C@@H]21
> 50 µM
O=C1NC(=O)C2(CCC(C(=O)N3CC[C@](c4ccc(C(F)(C(F)(F)F)C(F)(F)F)cc4)(S(=O)(=O)c4ccc(F)cc4)C3)CC2)N1 (stereo in doubt; 24)
> 14 µM

IN: I'd like to know its EC50. The compound in question is O=C(C1CCS(=O)(=O)C1)N1CC[C@](c2ccc(C(F)(C(F)(F)F)C(F)(F)F)cc2)(S(=O)(=O)c2ccc(F)cc2)C1 (stereo in doubt; 33)
OUT: 7.2 µM

====

# TESTED_SYSTEM: PXR (Homo sapiens, UniProt O75469)
# ASSAY_COMMENT: Transactivation of PXR (unknown origin) expressed in human HepG2 cells assessed as maximum receptor activation response relative to control
# Type: cell-based
# EXPERIMENTAL_PARAMETERS: human HepG2 cells that express PXR, read-out: %max
ENDPOINT_LABEL: Emax (%)

P. O=C(N1CC[C@](c2ccc(C(F)(C(F)(F)F)C(F)(F)F)cc2)(S(=O)(=O)c2ccc(F)cc2)C1)C12CCC(C(=O)O)(CC1)OC2
Q. CC1(C(=O)N2CC[C@](c3ccc(C(F)(C(F)(F)F)C(F)(F)F)cc3)(S(=O)(=O)c3ccc(F)cc3)C2)CCS(=O)(=O)CC1
R. O=C([C@H]1CC[C@](F)(C(=O)O)CC1)N1CC[C@](c2ccc(C(F)(C(F)(F)F)C(F)(F)F)cc2)(S(=O)(=O)c2ccc(F)cc2)C1
S. O=C(N1CC[C@](c2ccc(C(F)(C(F)(F)F)C(F)(F)F)cc2)(S(=O)(=O)c2ccc(F)cc2)C1)C1(F)CCS(=O)(=O)CC1
IN: Falling order of Emax, please. State the ranking by listing the labels in the requested order.
OUT: R, S, Q, P

====

# ASSAY_COMMENT: Stability in human liver microsomes assessed as parent compound remaining after 10 mins
# Format: ADME, Microsome
# EXPERIMENTAL_PARAMETERS: liver microsomes, read-out: Stability
ENDPOINT_LABEL: remaining at 10 min (%)

O=C(O)C12CCC(C(=O)N3CC[C@](c4ccc(C(F)(C(F)(F)F)C(F)(F)F)cc4)(S(=O)(=O)c4ccc(F)cc4)C3)(CC1)CC2
100
COC[C@]1(C(=O)N2CC[C@](c3ccc(C(F)(C(F)(F)F)C(F)(F)F)cc3)(S(=O)(=O)c3ccc(F)cc3)C2)CC[C@H](C(=O)O)CC1
100
O=C([C@H]1CC[C@@](F)(C(=O)O)CC1)N1CC[C@](c2ccc(C(F)(C(F)(F)F)C(F)(F)F)cc2)(S(=O)(=O)c2ccc(F)cc2)C1
82
O=C(N1CC[C@](c2ccc(C(F)(C(F)(F)F)C(F)(F)F)cc2)(S(=O)(=O)c2ccc(F)cc2)C1)C1(O)CCS(=O)(=O)CC1
100
O=C(O)[C@H]1CC[C@H](C(=O)N2CC[C@](c3ccc(C(F)(C(F)(F)F)C(F)(F)F)cc3)(S(=O)(=O)c3ccc(F)cc3)C2)CC1
97
O=C([C@H]1CC[C@H](CO)CC1)N1CC[C@](c2ccc(C(F)(C(F)(F)F)C(F)(F)F)cc2)(S(=O)(=O)c2ccc(F)cc2)C1
75
O=C(O)[C@@H]1C[C@@H]2[C@H](C1)[C@H]2C(=O)N1CC[C@](c2ccc(C(F)(C(F)(F)F)C(F)(F)F)cc2)(S(=O)(=O)c2ccc(F)cc2)C1
100
O=C(N1CC[C@](c2ccc(C(F)(C(F)(F)F)C(F)(F)F)cc2)(S(=O)(=O)c2ccc(F)cc2)C1)C1(CO)CCS(=O)(=O)CC1
75
CO[C@]1(C(=O)N2CC[C@](c3ccc(C(F)(C(F)(F)F)C(F)(F)F)cc3)(S(=O)(=O)c3ccc(F)cc3)C2)CC[C@H](C(=O)O)CC1
82
O=C(O)[C@H]1[C@@H]2C[C@@H](C(=O)N3CC[C@](c4ccc(C(F)(C(F)(F)F)C(F)(F)F)cc4)(S(=O)(=O)c4ccc(F)cc4)C3)C[C@@H]21
100
